This listing pairs molecules with measured IC50.
# METHOD: Cytotoxicity against human Hs683 cells after 3 days by MTT assay
# Format: functional, cell-based
# RECORDED_CONDITIONS: Hs 683, 72 h
Numbers only; they are read as nM.

Field: example entries. Status: answers known.
| MOLECULE | UNIT_DESCRIPTOR | REPORTED_VALUE |
| --- | --- | --- |
| C[C@]12CC[C@H](O)C[C@@H]1CC[C@@H]1[C@@H]2CC[C@]2(C)[C@@H](c3ccc(=O)oc3)CC[C@]12O | nM | 21 |
| C[C@]12CC[C@H]3[C@@H](CC[C@H]4C[C@@H](O)CC[C@@]43C=O)[C@@]1(O)CC[C@@H]2c1ccc(=O)oc1 | nM | 40 |

Below: the item to evaluate.
May I ask what IC50 has been recorded for CC(=O)O[C@H]1C[C@]2(O)[C@@H]3CC[C@@H]4C[C@@H](O)CC[C@]4(C)[C@H]3CC[C@]2(C)[C@H]1c1ccc(=O)oc1 [BUFOTALIN] ?
9

###

# Test system: SK-MEL-28
# METHOD: Cytotoxicity against human SK-MEL-28 cells after 3 days by MTT assay
# Type: functional, cell-based
# RECORDED_CONDITIONS: SK-MEL-28, 72 h
# maps each entry to its IC50

| SMILES | IC50 |
| --- | --- |
| C[C@]12CC[C@H](O)C[C@H]1CC[C@@H]1C2=C(O)C(=O)[C@]2(C)[C@@H](c3ccc(=O)oc3)CC[C@]12O | 70 nM |
| CC(=O)O[C@H]1CC[C@@]2(C=O)[C@H](CC[C@@H]3[C@@H]2CC[C@]2(C)[C@@H](c4ccc(=O)oc4)C[C@H]4O[C@]342)C1 | > 10000 nM |

Here's the next entry for you.
Return reported IC50; argument: C[C@@H]1O[C@@H](O[C@H]2C[C@@H](O)[C@]3(CO)[C@H]4[C@H](O)C[C@]5(C)[C@@H](C6=CC(=O)OC6)CC[C@]5(O)[C@@H]4CC[C@]3(O)C2)[C@H](O)[C@H](O)[C@H]1O
211 nM
